All values here come from ChEMBL document CHEMBL2093137.

Test system: Trypanosoma cruzi
test_summary: WHO-TDR: Chagas disease
Type: functional, organism-based, Homo sapiens
conditions: MRC5
outcome_measure: IC50 (µg/mL)

                                    molecule  outcome_measure  lt_gt_eq  measurement
 0  COc1ccc(CCC(=O)NCC(c2ccsc2)N2CCc3ccccc3C2)cc1 (stereo unspecified)             IC50         =         4.15
 1  CN(C)c1ccc(NC(=O)Cc2csc(SCc3ccncc3)n2)cc1             IC50         =         3.47
 2          Fc1cccc2sc(Nc3nc4c(s3)CCCC4)nc12             IC50         >         9.16
 3  CCOC(=O)c1c(NC(=O)C(C)n2c(-n3nc(C)cc3C)nc(CC)cc2=O)sc2c1CCC2 (stereo unspecified)             IC50         =         0.57
 4  O=C(CSc1ccc(-c2ccc(-n3cccn3)cc2)nn1)Nc1ccc2c(c1)OCO2             IC50         >         12.9
 5  CCCOc1nn(CCC)cc1C(=O)N1CCN(c2ccccc2Cl)CC1             IC50         =         3.06
 6  Cc1ccnc(Nc2ccc(NCCNS(=O)(=O)c3cccc(Cl)c3)nn2)c1             IC50         >         12.6
 7  CCCCN(C)S(=O)(=O)c1ccc(C(=O)N2CCN(c3nc4c(C)ccc(C)c4s3)CC2)cc1             IC50         >           15
 8  O=C(Nc1ccc2c(c1)N(C(=O)C1CC1)CCC2)c1cccc(C(F)(F)F)c1             IC50         =        0.808
 9  CN1CCc2c(OCC(=O)N3N=C(c4cccs4)CC3c3ccc(F)cc3)cccc2C1=O (stereo unspecified)             IC50         =          2.3
10  CN(C)CCCN(C(=O)c1nc2ccccc2s1)c1nc2c(Cl)cccc2s1             IC50         =        0.239
11  COC(=O)c1c(NC(=O)c2nc3ccccc3s2)sc2c1CC(C)(C)NC2(C)C             IC50         >         12.9
12       O=C(NC1CCCC1)c1csc(NC(=O)c2cccs2)n1             IC50         >         9.64
13  CCOc1ccc(-c2ccc(=O)n(CCCC(=O)Nc3ccccc3SC)n2)cc1             IC50         =         8.92
14  COc1ccc(S(=O)(=O)N2CCN(c3ccc(Nc4ccccn4)nn3)CC2)cc1             IC50         >         12.8
15  O=C(CCCSc1ccc(F)cc1)N1CCN(c2nc3ccc(Cl)cc3s2)CC1             IC50         >         13.5
16  CN(C)CCCN(C(=O)c1ccc2c(c1)CCCC2)c1nc2ccc(Br)cc2s1             IC50         =         3.21
17  CCn1ccc(C(=O)Nc2nc(-c3cc(Cl)ccc3Cl)cs2)n1             IC50         >           11
18  O=C(Cn1c(S(=O)(=O)Cc2ccccc2)nc2ccccc21)N1CCN(c2ccccc2)CC1             IC50         >         14.2
19  C#CCn1/c(=N/C(=O)CN2C(=O)c3ccccc3C2=O)sc2c3ccccc3ccc21             IC50         >         11.4
20  CCc1ccc(S(=O)(=O)N2CCN(c3ccc(Nc4ccccn4)nn3)CC2)cc1             IC50         >         12.7
